For each entry below, report its activity at 30 µM value.
Molecular target: UniProtKB Q8IEX1
Assay: biochemical
Conditions: read-out: TbTryS Activity ± 2σn-1 (%)
Value expressed in %; do not type the unit.

Param item: c1ccc(COc2ccc(CNCCCCNCc3ccc(OCc4ccccc4)cc3)cc2)cc1 ; param system: UniProtKB Q8IEX1; output activity at 30 µM: 62.1

Param item: COc1ccc(C(=O)C2=C(O)C(=O)N(c3nc4ccc(Cl)cc4s3)C2c2ccc(F)cc2)cc1OC (centres unmarked) ; param system: UniProtKB Q8IEX1; output activity at 30 µM: 123

Param item: CCNC(=S)Nc1nc2nc(N)ncc2cc1-c1ccc2c(c1)OCO2 ; param system: UniProtKB Q8IEX1; output activity at 30 µM: 79.1

Param item: COc1ccc(CNCCCNCc2ccc(OC)cc2)cc1 ; param system: UniProtKB Q8IEX1; output activity at 30 µM: 71.9

Param item: CC(C)(C)NC(=O)Nc1ncc2cc(-c3ccc4c(c3)OCO4)c(NC(=O)NC(C)(C)C)nc2n1 ; param system: UniProtKB Q8IEX1; output activity at 30 µM: 74.7

###

Test system: bloodstream Trypanosoma brucei brucei
Test: Proliferation/cytotoxicity assay, infective T. b. brucei
Assay type: cell-based
Conditions: 24 h, read-out: T. b. Brucei EC50
MEASURE: log10(EC50) (log10 of the value in nM)
Log10 applied to EC50; unit prior to transform: nM.

Value of measured log10(EC50) for the entry CC(C)(C)NC(=O)Nc1nc2nc(N)ncc2cc1-c1ccc2ccccc2c1 [ZEA10] : 2.45

Value of measured log10(EC50) for the entry CNCCNC(=O)CN1C(=O)Cc2c([nH]c3ccc(Br)cc23)-c2ccc(Cl)cc21 [MOL2008] : 3.63

Value of measured log10(EC50) for the entry COc1cc(CNCCCCCCNCc2ccc(OCc3ccccc3)c(OC)c2)ccc1OCc1ccccc1 [APC1-101] : 2.45

Value of measured log10(EC50) for the entry Brc1ccc(CNCCCCCCCCCCCCNCc2ccc(Br)cc2)cc1 [EAP1-63] : 1.95

Value of measured log10(EC50) for the entry COc1cc(CNCCCCCCCCNCc2ccc(OCc3ccccc3)c(OC)c2)ccc1OCc1ccccc1 [APC1-111] : 1.60

Value of measured log10(EC50) for the entry CC(C)c1ccc(CNCCCCCCCCCCNCc2ccc(C(C)C)cc2)cc1 [EAP1-47] : 2.30

Value of measured log10(EC50) for the entry COc1cc(CNCCCCNCc2ccc(OCc3ccccc3)c(OC)c2)ccc1OCc1ccccc1 [APC1-89] : 1.79

###

Target: L. infantum trypanothione synthetase (LiTryS) (Leishmania infantum, UniProt A4I2Z3)
Sequence (A4I2Z3 entry or part of it): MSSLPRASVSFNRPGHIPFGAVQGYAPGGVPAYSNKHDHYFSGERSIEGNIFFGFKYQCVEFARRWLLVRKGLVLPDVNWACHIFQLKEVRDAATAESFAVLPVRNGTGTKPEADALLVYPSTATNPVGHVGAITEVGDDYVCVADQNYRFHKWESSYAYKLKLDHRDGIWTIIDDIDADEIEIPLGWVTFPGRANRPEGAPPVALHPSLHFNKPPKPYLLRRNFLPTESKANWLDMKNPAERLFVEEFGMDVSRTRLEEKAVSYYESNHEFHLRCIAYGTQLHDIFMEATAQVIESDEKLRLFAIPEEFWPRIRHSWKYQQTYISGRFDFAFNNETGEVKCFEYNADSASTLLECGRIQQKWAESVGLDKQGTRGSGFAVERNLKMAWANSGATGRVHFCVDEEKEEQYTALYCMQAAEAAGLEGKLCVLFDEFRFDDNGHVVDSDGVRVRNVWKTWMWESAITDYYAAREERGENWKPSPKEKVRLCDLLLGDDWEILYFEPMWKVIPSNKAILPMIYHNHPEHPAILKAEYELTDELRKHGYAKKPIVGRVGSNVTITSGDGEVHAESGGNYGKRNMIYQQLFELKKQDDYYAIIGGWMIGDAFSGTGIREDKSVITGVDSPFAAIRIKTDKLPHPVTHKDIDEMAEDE
Experiment: biochemical
Assay type: biochemical
Conditions: end-point BIOMOL GREEN assay; competes with ATP; read-out: apparent Ki ADP, LiTryS JPCM5 (His-tagged)
MEASURE: pKi
Field pKi (float): negative decimal logarithm of the concentration in molar.

Value of measured pKi for the entry Nc1ncnc2c1ncn2[C@@H]1O[C@H](COP(=O)(O)OP(=O)(O)O)[C@@H](O)[C@H]1O : 4.05

###

For each entry below, report its LiTryS Activity ± 2σn-1 (%) value.
Target: LiTryS (Leishmania infantum trypanothione synthetase) (Leishmania infantum, UniProt A4I2Z3)
Sequence (A4I2Z3 1-652): as the sequence (A4I2Z3 entry or part of it) above
Experiment: biochemical
Type: biochemical

Value of measured LiTryS Activity ± 2σn-1 (%) for the entry COc1cc(CNCCCNCc2ccc(O)c(OC)c2)ccc1O : 84.9 ± 0.9; 4%

Value of measured LiTryS Activity ± 2σn-1 (%) for the entry Cc1ccc2nc(N3C(=O)C(O)=C(C(=O)c4ccc5c(c4)OCCO5)C3c3ccccc3)sc2c1 (stereo not drawn) : 83.1 ± 2.3; 3%

Value of measured LiTryS Activity ± 2σn-1 (%) for the entry Cc1ccc(CNCCCCCCCCNCc2ccc(C)cc2)cc1 : 91.9 ± 2.7; 3%

Value of measured LiTryS Activity ± 2σn-1 (%) for the entry O=C(C1=C(O)C(=O)N(c2nc3ccc(Cl)cc3s2)C1c1ccc(O)cc1)c1ccc2c(c1)OCCO2 (stereo not drawn) : 83.9 ± 3.8; 4%

Value of measured LiTryS Activity ± 2σn-1 (%) for the entry Fc1ccc(CNCCCCCCCCCCNCc2ccc(F)cc2)cc1 : 80.6 ± 2.7; 4%

Value of measured LiTryS Activity ± 2σn-1 (%) for the entry COc1ccc2nc(N3C(=O)C(O)=C(C(=O)c4ccc5c(c4)OCCO5)C3c3ccc(O)c(OC)c3)sc2c1 (stereo not drawn) : 79.4 ± 4.6; 4%

Value of measured LiTryS Activity ± 2σn-1 (%) for the entry CCCCN(CCCC)C(=O)c1cnc(N)o1 : 99.4 ± 5.6; 4%

Value of measured LiTryS Activity ± 2σn-1 (%) for the entry Clc1ccc(CNCCCCCCCCNCc2ccc(Cl)cc2)cc1 : 78.0 ± 5.9; 4%

Value of measured LiTryS Activity ± 2σn-1 (%) for the entry Cc1ccc2c(c1)no[n+]2[O-] : 84.7 ± 10.5; 4%

###

Target: LiTryS (Leishmania infantum trypanothione synthetase) (Leishmania infantum, UniProt A4I2Z3)
Experiment: biochemical
Assay type: biochemical
For each entry below, report its LiTryS Activity ± 2σn-1 (%) value.

Value of measured LiTryS Activity ± 2σn-1 (%) for the entry [O-][n+]1onc2cc(C(F)(F)F)ccc21 : 110.7 ± 2.4; 3%

Value of measured LiTryS Activity ± 2σn-1 (%) for the entry COc1cc(CNCCCCCCCCNCc2ccc(O)c(OC)c2)ccc1O : 102.8 ± 8.6; 3%

Value of measured LiTryS Activity ± 2σn-1 (%) for the entry COc1cc(CNCCCCCCCCCCNCc2ccc(O)c(OC)c2)ccc1O : 94.3 ± 8.2; 3%

Value of measured LiTryS Activity ± 2σn-1 (%) for the entry Cc1ccc2nc(N3C(=O)C(O)=C(C(=O)c4ccc5c(c4)OCCO5)C3c3ccc(O)cc3)sc2c1 (stereo not drawn) : 86.2 ± 5.8; 4%

Value of measured LiTryS Activity ± 2σn-1 (%) for the entry COc1cc(CNCCCNCc2ccc(OCc3ccccc3)c(OC)c2)ccc1OCc1ccccc1 : 72.1 ± 3.4; 4 (1.27) %

Value of measured LiTryS Activity ± 2σn-1 (%) for the entry [O-][n+]1onc2c(Cl)cc(Cl)cc21 : 88.0 ± 1.0; 3%

Value of measured LiTryS Activity ± 2σn-1 (%) for the entry [O-][n+]1onc2cc(F)c(F)cc21 : 92.9 ± 5.1; 4%

Value of measured LiTryS Activity ± 2σn-1 (%) for the entry COc1ccc(C2C(C(=O)c3ccc(OC)c(OC)c3)=C(O)C(=O)N2c2nc3ccc(OC)cc3s2)cc1 (stereo not drawn) : 79.8 ± 3.4; 4%

###

For each entry below, report its inhibition at 30 µM value.
Molecular target: UniProt Q9GT49
Assay: biochemical
Format: biochemical
Details: read-out: % TcTryS inhibition ± 2σn-1
Value expressed in %; do not type the unit.

Value of measured inhibition at 30 µM for the entry CCNC(=S)Nc1nc2nc(N)ncc2cc1-c1ccc2c(c1)OCO2 [ZEA41] : 50

Value of measured inhibition at 30 µM for the entry c1ccc(COc2ccc(CNCCCCNCc3ccc(OCc4ccccc4)cc3)cc2)cc1 [APC1-87] : 26.6

Value of measured inhibition at 30 µM for the entry c1ccc(COc2ccc(CNCCCCCCNCc3ccc(OCc4ccccc4)cc3)cc2)cc1 [APC1-99] : 33.4

###

Target: T. b. brucei trypanothione synthetase (TbTryS) (Trypanosoma brucei brucei, UniProt Q8IEX1)
Sequence (Q8IEX1 entry or part of it): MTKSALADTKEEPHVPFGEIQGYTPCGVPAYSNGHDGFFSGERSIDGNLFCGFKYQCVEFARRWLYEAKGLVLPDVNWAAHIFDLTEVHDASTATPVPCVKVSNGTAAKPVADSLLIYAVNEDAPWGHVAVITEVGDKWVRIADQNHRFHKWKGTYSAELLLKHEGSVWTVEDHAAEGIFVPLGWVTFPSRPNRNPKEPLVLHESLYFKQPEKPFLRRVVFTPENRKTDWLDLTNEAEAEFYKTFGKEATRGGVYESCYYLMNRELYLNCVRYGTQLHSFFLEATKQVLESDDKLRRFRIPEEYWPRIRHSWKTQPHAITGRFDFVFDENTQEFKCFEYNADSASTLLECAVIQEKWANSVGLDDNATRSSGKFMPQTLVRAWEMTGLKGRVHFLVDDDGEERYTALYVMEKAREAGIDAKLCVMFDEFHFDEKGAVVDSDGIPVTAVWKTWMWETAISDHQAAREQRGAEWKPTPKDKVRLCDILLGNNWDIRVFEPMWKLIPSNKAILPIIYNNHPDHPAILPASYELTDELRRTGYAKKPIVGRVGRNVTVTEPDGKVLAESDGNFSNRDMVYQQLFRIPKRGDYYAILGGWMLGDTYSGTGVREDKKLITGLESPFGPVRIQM
Assay: biochemical
Conditions: end-point BIOMOL GREEN assay; competes with ATP; read-out: apparent Ki ADP, His-tagged TbTryS 427 (MITat1.4)
MEASURE: Ki (µM)
Value expressed in µM; do not type the unit.

Param item: Nc1ncnc2c1ncn2[C@@H]1O[C@H](COP(=O)(O)OP(=O)(O)O)[C@@H](O)[C@H]1O [ADP] ; param system: T. b. brucei trypanothione synthetase (TbTryS) (Trypanosoma brucei brucei, UniProt Q8IEX1); output Ki: 40

###

Molecular target: T. cruzi trypanothione synthetase (TcTryS) (Trypanosoma cruzi)
Sequence (Q9GT49 whole entry): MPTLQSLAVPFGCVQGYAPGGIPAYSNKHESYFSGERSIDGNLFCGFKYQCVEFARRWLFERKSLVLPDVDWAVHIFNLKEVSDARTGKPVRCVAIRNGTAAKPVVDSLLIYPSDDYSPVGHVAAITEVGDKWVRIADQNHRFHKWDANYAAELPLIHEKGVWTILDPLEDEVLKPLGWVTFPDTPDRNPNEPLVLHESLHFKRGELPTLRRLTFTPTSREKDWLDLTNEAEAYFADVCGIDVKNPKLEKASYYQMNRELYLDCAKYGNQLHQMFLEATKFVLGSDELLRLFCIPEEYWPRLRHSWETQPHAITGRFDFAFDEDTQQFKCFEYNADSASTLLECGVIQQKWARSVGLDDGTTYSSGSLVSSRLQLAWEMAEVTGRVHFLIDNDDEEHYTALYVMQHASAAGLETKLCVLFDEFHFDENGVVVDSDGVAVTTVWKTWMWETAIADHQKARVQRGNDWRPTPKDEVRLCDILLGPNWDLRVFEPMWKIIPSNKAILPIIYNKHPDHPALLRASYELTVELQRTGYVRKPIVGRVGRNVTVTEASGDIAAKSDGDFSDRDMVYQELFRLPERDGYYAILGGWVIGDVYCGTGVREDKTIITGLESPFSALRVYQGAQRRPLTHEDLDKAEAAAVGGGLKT
Conditions: read-out: apparent Ki ADP, TcTryS strain Tulahuen 0 (His-tagged); end-point BIOMOL GREEN assay; competes with ATP
MEASURE: Ki (µM)
Value expressed in µM; do not type the unit.

Value of measured Ki for the entry Nc1ncnc2c1ncn2[C@@H]1O[C@H](COP(=O)(O)OP(=O)(O)O)[C@@H](O)[C@H]1O : 60

###

Molecular target: TcTryS (Trypanosoma cruzi trypanothione synthetase) (Trypanosoma cruzi, UniProt Q9GT49)
Test: biochemical
Assay type: biochemical
Settings: read-out: % TcTryS inhibition ± 2σn-1
MEASURE: inhibition at 30 µM (%)
Value expressed in %; do not type the unit.

Param item: CC(C)(C)NC(=O)Nc1ncc2cc(-c3ccc4c(c3)OCO4)c(NC(=O)NC(C)(C)C)nc2n1 [ZEA40] ; param system: TcTryS (Trypanosoma cruzi trypanothione synthetase) (Trypanosoma cruzi, UniProt Q9GT49); output inhibition at 30 µM: 50

Param item: CC(C)c1ccc(CNCCCCCCCCCCNCc2ccc(C(C)C)cc2)cc1 [EAP1-47] ; param system: TcTryS (Trypanosoma cruzi trypanothione synthetase) (Trypanosoma cruzi, UniProt Q9GT49); output inhibition at 30 µM: 50

Param item: CC(C)(C)NC(=O)Nc1nc2nc(N)ncc2cc1-c1ccc2ccccc2c1 [ZEA10] ; param system: TcTryS (Trypanosoma cruzi trypanothione synthetase) (Trypanosoma cruzi, UniProt Q9GT49); output inhibition at 30 µM: 32.3

Param item: COc1cc(CNCCCCCCCCNCc2ccc(OCc3ccccc3)c(OC)c2)ccc1OCc1ccccc1 [APC1-111] ; param system: TcTryS (Trypanosoma cruzi trypanothione synthetase) (Trypanosoma cruzi, UniProt Q9GT49); output inhibition at 30 µM: 28.9

Param item: COc1cc(CNCCCCNCc2ccc(OCc3ccccc3)c(OC)c2)ccc1OCc1ccccc1 [APC1-89] ; param system: TcTryS (Trypanosoma cruzi trypanothione synthetase) (Trypanosoma cruzi, UniProt Q9GT49); output inhibition at 30 µM: 25.6

Param item: Brc1ccc(CNCCCCCCCCCCCCNCc2ccc(Br)cc2)cc1 [EAP1-63] ; param system: TcTryS (Trypanosoma cruzi trypanothione synthetase) (Trypanosoma cruzi, UniProt Q9GT49); output inhibition at 30 µM: 30.8

Param item: COc1cc(CNCCCCCCNCc2ccc(OCc3ccccc3)c(OC)c2)ccc1OCc1ccccc1 [APC1-101] ; param system: TcTryS (Trypanosoma cruzi trypanothione synthetase) (Trypanosoma cruzi, UniProt Q9GT49); output inhibition at 30 µM: 17
